Measured GI50 values are reported for all entries that follow.
Tested on: HT-29
Experiment: NCI tumour cell line growth inhibition, 48 h
The source made the active and inactive calls. No stated cut-off is given here; in the data, active = GI50 up to about 1.1 µM and inactive = higher.

| compound | GI50 |
| --- | --- |
| N=C1NC(c2ccc(Cl)cc2)=CC(c2cccc(Cl)c2)S1 (stereo not drawn) | 30.8 µM (inactive) |
| CC[C@@]12CCC(=S)N(CCSc3ccccc3)[C@@H]1c1c(n(S(=O)(=O)c3ccc(OC)cc3)c3ccccc13)CC2 | > 100 µM (inactive) |
| COC(=O)/C=C\C(C#N)(C#N)/N=C/c1ccc(Br)s1 | 2.35 µM (inactive) |
| Cc1ccnc(NC(=S)Nc2ccccc2Cl)c1 | > 100 µM (inactive) |
| COc1cc(C2c3cc4c(cc3[C@@H](Nc3ccc(F)cc3)C3COC(=O)[C@H]23)OCO4)cc(OC)c1O (stereo partly drawn) | 3.41 µM (inactive) |
| CC(C)(C)c1nc2c(o1)/C(=N\c1ccc(F)cc1)c1ccccc1C2=O | 17.6 µM (inactive) |
| O=C(/C=C/c1ccccc1Cl)c1ccc(Cl)cc1Cl | 14.3 µM (inactive) |
| CCn1nc(C)c2c1C(=O)NCC(=O)N2 | > 100 µM (inactive) |
| COc1ccc(C[C@@H]2OC3(C=CC(=O)CC3Sc3ccccc3)O[C@H]2Cc2ccc(OC)cc2)cc1 (stereo partly drawn) | 1.79 µM (inactive) |
| COC(=O)CCCN(C)c1nc(N)n[nH]1 | > 100 µM (inactive) |
| CCOC(=O)c1c(-c2ccc(OC)cc2)c(C#N)c(=S)n(C2OC(CO)C(O)C(O)C2O)c1-c1ccccc1 (stereo not drawn) | 40.6 µM (inactive) |
| Oc1cc(-c2ccc(Oc3ccccc3)cc2)nc2cc3c(cc12)OCO3 | > 100 µM (inactive) |
| CCOC(=O)/C(=C/c1ccc(C(F)(F)F)cc1)N(CC)CC | > 100 µM (inactive) |
| CCCCSC1=N/C(=C\c2ccc(N(C)C)cc2)C(=O)N1 | 11.9 µM (inactive) |
| CC1CN(c2ccc(Cl)cc2)CC(C)(C)OC(=O)O1 (stereo not drawn) | > 100 µM (inactive) |
| O=C(O)CNCCc1ccccc1 | > 100 µM (inactive) |
| O=C(Cn1c(=O)oc2ccc(C(=O)c3ccc(F)cc3)cc21)c1ccc([N+](=O)[O-])cc1 | 39 µM (inactive) |
| CN(C)C(=O)OC(Cn1cncn1)(Cn1cncn1)c1ccc(Cl)cc1Cl | > 100 µM (inactive) |
| CCO/C(CCn1[nH]c(=O)c(Cl)c(Cl)c1=O)=N\NC(=O)C(=O)NN | > 100 µM (inactive) |
| C/C(=N\O)C1CC2C=C(C#N)C1N(Cc1ccccc1)C2 (stereo not drawn) | > 100 µM (inactive) |
| CNC(=O)N(CCC#N)CCN(C(=O)NC)c1ccccc1 | > 100 µM (inactive) |
| COc1cc(CC(C)N)ccc1O (stereo not drawn) | > 100 µM (inactive) |
| N#Cc1c(N)[nH]c(=S)c(C#N)c1-c1cccc(Cl)c1 | 34.2 µM (inactive) |
| COC(=O)CCCC1(CCCC(=O)OC)CCCCCCCCC(CCCC(=O)OC)(CCCC(=O)OC)C(=O)C1=O | 43.5 µM (inactive) |
| Cc1ccc2occ/c(=N\Nc3ccccc3)c2c1 | 23.9 µM (inactive) |
| CC(C)(c1ccccc1)c1ccc(Oc2ccc(C#N)c(C#N)c2)cc1 | > 10 µM (inactive) |
| CC1=C(C)CC2(C=C(C(C)(C)C)C(=O)C(C(C)(C)C)=C2)SC1 | 19.9 µM (inactive) |
| Cc1cc2c(C)nn(Cc3ccccc3)c2c(C(N)=O)c1C | > 100 µM (inactive) |
| O=C1NC(Cc2ccc(O)cc2)C(=O)NC1Cc1ccc(O)cc1 (stereo not drawn) | > 100 µM (inactive) |
| C(=N\c1ccc(-c2nc3ccccc3[nH]2)cc1)/c1cccs1 | > 100 µM (inactive) |
| COc1cc(/C=C2\C(=O)N(c3cccc([N+](=O)[O-])c3)C(c3ccccc3)S2(=O)=O)cc(OC)c1OC (stereo not drawn) | > 100 µM (inactive) |
| [N-]=[N+]=N[C@H]1C[C@@H](CO)O[C@H]1n1cnc2c(N)ncnc21 | > 100 µM (inactive) |
| C/C(=C1/N=C(c2cc([N+](=O)[O-])ccc2Cl)N(c2cccc(C)c2)C1=O)c1cc2ccccc2oc1=O | 58.5 µM (inactive) |
| O=C(Oc1ccc(C(c2c(O)c3ccccc3oc2=O)c2c(O)c3ccccc3oc2=O)cc1)c1ccc(C(=O)c2ccccc2)cc1 | 17.7 µM (inactive) |
| O=C(Cn1ccnc1[N+](=O)[O-])N(CCO)CCO | > 250 µM (inactive) |
| O=[N+]([O-])C(=C/c1cccc2ccccc12)/C(=C\c1cccc2ccccc12)[N+](=O)[O-] | 2.21 µM (inactive) |
| CCOC(=O)C(O)(NC(C)=O)C(F)(F)F (stereo not drawn) | > 100 µM (inactive) |
| Cc1cc(C)cc(NC(N)=S)c1 | 40.9 µM (inactive) |
| O=C1NC(=O)C(c2c[nH]c3cc(Br)ccc23)=C1c1cn(C(c2ccccc2)(c2ccccc2)c2ccccc2)cn1 | 9.48 µM (inactive) |
| CCc1nnc(CC)n1-n1c(Cc2ccccc2)n[nH]c1=O | > 100 µM (inactive) |
| COC(=O)C(C/C=C(\C)c1ccccc1)C(C)=O (stereo not drawn) | 83.9 µM (inactive) |
| Cn1c(=S)c2nc(SCCN3C(=O)c4ccccc4C3=O)[nH]c2n(C)c1=O | > 100 µM (inactive) |
| CC(=O)c1ccc(OCC(O)CO)cc1 (stereo not drawn) | 61.4 µM (inactive) |
